Assay: Stability in artificial gastric juice environment (HPLC)
Conditions: 37° C.
Non-degradation percentage at 16 h listing for selected molecules.
Hey, just the number and the unit after it is fine.

Some solved cases for reference:
C=C1CC[C@H]2C(=C)CC[C@H]3C(=C)C(=O)O[C@@H]3[C@@H]12 [dehydrocostus lactone, reference compound]	65.42%
C=C1C(=O)O[C@H]2[C@H]1CC[C@@]1(C)C[C@]13C[C@@H](O)[C@@](C)(O)[C@H]23	96.84%
C=C1C(=O)O[C@@H]2[C@@H]3[C@]4(CC[C@@]3(C)O)C[C@]4(C)CC[C@@H]12	98.76%
C=C1C(=O)O[C@@H]2[C@H]3C(C)=CC[C@]34C[C@]4(C)CC[C@@H]12	86.62%
C=C1C(=O)O[C@@H]2[C@H]3C(C)=CC[C@@]34O[C@@]4(C)CC[C@@H]12 [arglabin, reference compound]	48.70%

Given the molecule C=C1C(=O)O[C@@H]2[C@@H]3[C@]4(CC[C@@]3(C)F)C[C@]4(C)CC[C@@H]12 , what is its reported Non-degradation percentage at 16 h?
99.85%

Given the molecule C=C1C(=O)O[C@@H]2C3=C(C)CC[C@]34C[C@]4(C)CC[C@@H]12 , what is its reported Non-degradation percentage at 16 h?
96.80%
